Biological target: RGS8 (Homo sapiens (Human))
Sequence (P57771 other isoform, or with tags, fused parts or gaps): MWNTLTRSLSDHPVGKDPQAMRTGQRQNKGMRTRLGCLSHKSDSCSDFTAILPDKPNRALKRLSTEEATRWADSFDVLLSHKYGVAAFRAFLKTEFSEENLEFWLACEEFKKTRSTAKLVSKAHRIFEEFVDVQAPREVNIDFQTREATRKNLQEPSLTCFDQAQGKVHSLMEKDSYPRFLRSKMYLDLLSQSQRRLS
Assay: FCPIA: Gαo binding to RGS8
Conditions: Table 3
Description: FCPIA Dose Response and Reversibility Experiments:
Measured Property: RGS8 Hill Slope

a: Cc1ccc(-n2sc(=O)n(CC(C)C)c2=O)cc1 [CCG-203761]
b: Cc1ccc(Cn2sc(=O)n(Cc3ccc(F)cc3)c2=O)cc1 [CCG-203742]
c: COc1ccc(Cn2c(=O)sn(Cc3ccc(C)cc3)c2=O)cc1 [S28]
Sort the 3 compounds by RGS8 Hill Slope; largest first, smallest last. // ordering of labels required in reply
b, c, a

a: CN(C)c1ccc(-n2sc(=O)n(Cc3ccc(F)cc3)c2=O)cc1 [S2]
b: O=c1sn(-c2ccccc2)c(=O)n1Cc1ccc(F)cc1 [CCG-203726]
c: CCCCn1sc(=O)n(CCCC)c1=O [CCG-203770]
Ascending sort, RGS8 Hill Slope. A complete answer lists every label in the requested sequence.
a, b, c
(a: −1.28, b: −0.82, c: −0.53)
